Data origin: the SangsterLogP compilation

Let's look at some molecules and their measured logD.
- Assay overview: method code SF-HPLC, from DOI: 10.1002/jps.2600750109, PMID: 3958903
- Experimental setup: pH 7.4
Attribute measured: logD

>>> obs_value("CC(C)(C)C(=O)OCOc1ccccc1C(=O)NCN1CCOCC1")
1.81
>>> obs_value("CCCCCCOC(=O)C(CC)C(CO)Cc1cncn1C (stereo unspecified)")
2.71
>>> obs_value("CC[C@H](C(=O)OCc1ccccc1C)[C@H](CO)Cc1cncn1C")
2.42
>>> obs_value("CCC(C(=O)OCCc1ccccc1)C(CO)Cc1cncn1C (stereo unspecified)")
2.31
>>> obs_value("CC[C@H](C(=O)OCc1ccc(C)cc1)[C@H](CO)Cc1cncn1C")
2.46
>>> obs_value("O=C(NCN1CCOCC1)c1ccccc1O")
1.27
>>> obs_value("CCOC(=O)CC(CO)C(CC)c1cncn1C (stereo unspecified)")
0.73
>>> obs_value("CCC(C(=O)OC(C)c1ccccc1)C(CO)Cc1cncn1C (stereo unspecified)")
2.23
>>> obs_value("CCC(C(=O)OCc1ccccc1)C(CO)Cc1cncn1C (stereo unspecified)")
1.97
>>> obs_value("CC[C@H](C(=O)OCc1ccc(Cl)cc1)[C@H](CO)Cc1cncn1C")
2.69
>>> obs_value("CCCCOC(=O)[C@@H](CC)[C@H](CO)Cc1cncn1C")
1.73
